B1: TPR 5TU (parent)
chain: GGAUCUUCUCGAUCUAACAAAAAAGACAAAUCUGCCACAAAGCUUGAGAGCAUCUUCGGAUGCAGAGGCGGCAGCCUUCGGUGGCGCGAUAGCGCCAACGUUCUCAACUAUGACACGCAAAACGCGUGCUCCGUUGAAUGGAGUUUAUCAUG

Variants of: B1
Assay: polymerase ribozyme fitness, log enrichment relative to wild type (log ratio); higher = more active; in vitro selection for triplet polymerase activity
Fewer inactive variants are shown than the library holds.
Reported polymerase ribozyme fitness (log ratio) values for the following variants.

### Prompt Recorded polymerase ribozyme fitness (log ratio) of A20C A39C C79G A106G G124U , please.
### Response ≤ -4.2

### Prompt Recorded polymerase ribozyme fitness (log ratio) of A91C A97G U109C A142C , please.
### Response ≤ -4.2

### Prompt Recorded polymerase ribozyme fitness (log ratio) of A21U G68C C69G C116U , please.
### Response ≤ -4.2

### Prompt Recorded polymerase ribozyme fitness (log ratio) of U55A G71A U77C C95U A113C C149G , please.
### Response ≤ -4.2

### Prompt Recorded polymerase ribozyme fitness (log ratio) of G46A C54A C76U G143A , please.
### Response ≤ -4.2

New cases:
### Prompt Recorded polymerase ribozyme fitness (log ratio) of C38U U45A G84U C129A A142C , please.
### Response ≤ -4.2
